# Tested on: rat osteocalcin promoter
# Assay protocol: OCN (osteocalcin) promoter assay
# Assay type: cell-based
# Measurement setup: Rattus norvegicus, 48 h, RG-15 (ROS 17/2.8) cells, 48 hr treatment; Table 3 comparison compounds
# Description: 3. The OCN (osteocalcin) Promoter Assay The OCN Promoter Assay is an indicator and marker for osteoporosis. […] Preferred assay results are less than 50 nM. (3) Materials and Method for The OCN Promoter Assay: The activation of osteocalcin by VDR ligands was evaluated in a rat osteoblast-like cell line RG-15 (ROS 17/2.8) stably expressing rat osteocalcin promoter fused with luciferase reporter gene. […]
Parameter measured: EC50 (nM)
Lab book: enter the figure in nM, no units written.

// below: answered molecules
| Molecule | EC50 / nM |
| --- | --- |
| CCC(CC)(c1ccc(OCC(=O)C(C)(C)C)c(C)c1)c1ccc(OC[C@H](O)C(C)(C)C)c(C)c1 [EE, reference compound] | 341 |
| CCC(CC)(c1ccc(OCC(=O)C(C)(C)C)c(C)c1)c1ccc(OCC(=O)C(C)(C)C)c(C)c1 [DD, reference compound] | 31.1 |

Let us move to another entry and its EC50.
## Input Fill in the blank: the reported EC50 of CCC(CC)(c1ccc(OCC(O)CO)c(C)c1)c1ccc(OCC(O)C(C)(C)C)c(C)c1 (stereo not shown) [BB, reference compound] is ____.
## Output 8.24

====

# System: RXR-VDR heterodimer (Homo sapiens, UniProt P11473)
# Construct: Add the Gal-4-RXR-DEF and VP16-VDR-LBD
# Assay protocol: RXR-VDR heterodimerization assay (SaOS-2 cells)
# Measurement setup: luciferase reporter, Table 1
# Text: 1. The RXR-VDR Heterodimer Assay: This assay provides the VDR activity of a test compound. (1) Materials and Method for RXR-VDR Heterodimerization Assay: Transfection/Treatment Media: • D-MEM Low Glucose Without Phenol Red only Flat well Plates: • Use well plate to plate cells • Use Deep well plate sterile to make up treatment media. Luciferase Assay Reagent: • Use Steady-Glo Luciferase Reagent from Promega (Cat #E2550) Consists of: • a. E2533 Assay Substrate, lyopholized product and • b. […]
Listed here: items and their measured pEC50.
Please report pEC50 as the negative decimal logarithm of the molar concentration, giving only the number.

## Input Fill in the blank: the reported pEC50 of CCc1cc(C(CC)(CC)c2ccc(C(=O)N(C)C)o2)ccc1OCC(O)C(C)(C)C (single isomer, unassigned; enantiomer 2) [Ex. 11] is ____.
## Output 7.75

## Input Fill in the blank: the reported pEC50 of CCC(CC)(c1ccc(OCC(=O)C(C)(C)C)c(C)c1)c1oc(C(=O)N(C)C)cc1C [Ex. 8] is ____.
## Output 6.81

## Input Fill in the blank: the reported pEC50 of CCCc1cc(C(CC)(CC)c2ccc(C(=O)N(C)C)o2)ccc1OCC(O)C(C)(C)C (single isomer, unassigned; enantiomer 1) [Ex. 12] is ____.
## Output 6.73

====

# System: IL-10
# Assay protocol: IL-10 induction assay in PBMCs
# Type: cell-based
# Measurement setup: PBMC; TPA/PHA stimulated human PBMCs; Table 4 comparison compounds
# Description: 6. The IL-10 induction Assay This is an in vitro efficacy assay for psoriasis, abscess and adhesion. Psoriasis involves both keratinocytes and immune cells. IL-10 is a unique cytokine because it is anti-inflammatory and immunosuppressive. This assay tells us whether a VDRM is able to function as an agonist in PBMCs ([…]) or not. (6) Materials and Method for human IL-10 Induction Assay: […]
Parameter measured: pIC50
Please report pIC50 as the negative decimal logarithm of the molar concentration, giving only the number.

## Input Fill in the blank: the reported pIC50 of C=C1/C(=C\C=C2/CCC[C@]3(C)[C@@H]([C@H](C)/C=C/[C@@H](O)C4CC4)CC[C@@H]23)C[C@@H](O)C[C@@H]1O [FF, calcipotriol, reference compound] is ____.
## Output 9.30

====

Listed here: items and their measured IC50.
# Test system: KERtr cells
# Assay protocol: Keratinocyte proliferation assay
# Type: cell-based, Human
# Measurement setup: 72 hr, BrdU incorporation, Table 2, read-out: Kera. Prolif. IC50
Lab book: enter the figure in nM, no units written.

## Input Fill in the blank: the reported IC50 of CCNC(=O)c1ccc(C(CC)(CC)c2ccc(OCC(=O)C(C)(C)C)c(C)c2)o1 [Ex. 6] is ____.
## Output 112

## Input Fill in the blank: the reported IC50 of CCN(C)C(=O)c1ccc(C(CC)(CC)c2ccc(OCC(O)C(C)(C)C)c(C)c2)o1 (stereo not shown) [Ex. 9] is ____.
## Output 28

## Input Fill in the blank: the reported IC50 of CCCc1cc(C(CC)(CC)c2ccc(C(=O)N(C)C)o2)ccc1OCC(O)C(C)(C)C (single isomer, unassigned; enantiomer 1) [Ex. 12] is ____.
## Output 17

## Input Fill in the blank: the reported IC50 of CCc1cc(C(CC)(CC)c2ccc(C(=O)N(C)C)o2)ccc1OCC(O)C(C)(C)C (single isomer, unassigned; enantiomer 2) [Ex. 11] is ____.
## Output 18

## Input Fill in the blank: the reported IC50 of CCC(CC)(c1ccc(OCC(O)C(C)(C)C)c(C)c1)c1ccc(C(=O)N(C)C)o1 (single isomer, unassigned) [Ex. 4] is ____.
## Output 4

====

# System: VDR (Homo sapiens, UniProt P11473)
# Construct: the receptor expression vector pGal-4-VDR-LBD (10 ng); expressed in transfected cells; host or cells: Caco-2 cells
# Sequence (P11473 127-423 limits assumed): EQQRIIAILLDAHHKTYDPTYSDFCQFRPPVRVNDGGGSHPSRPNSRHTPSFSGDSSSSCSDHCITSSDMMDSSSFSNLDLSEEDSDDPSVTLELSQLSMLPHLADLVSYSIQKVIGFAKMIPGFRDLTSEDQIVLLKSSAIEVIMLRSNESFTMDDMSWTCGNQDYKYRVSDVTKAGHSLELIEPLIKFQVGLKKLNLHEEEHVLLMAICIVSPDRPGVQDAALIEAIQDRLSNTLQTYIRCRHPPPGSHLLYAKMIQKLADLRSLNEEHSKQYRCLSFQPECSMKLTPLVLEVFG
# Assay protocol: VDR CTF (Caco-2 cell co-transfection) assay
# Format: cell-based
# Measurement setup: Caco-2 cells, Gal-4-VDR-LBD co-transfection; Table 1
Listed here: items and their measured EC50.
Lab book: enter the figure in nM, no units written.

| Compound | Reported value |
| --- | --- |
| CCC(CC)(c1ccc(OCC(O)C(C)(C)C)c(C)c1)c1ccc(C(=O)N(C)C)o1 (single isomer, unassigned) [Ex. 4] | 333 |
| CCC(CC)(c1ccc(OCC(=O)C(C)(C)C)c(C)c1)c1ccc(C(=O)N(C)C)o1 | 191 |
| CCC(C)c1cc(C(CC)(CC)c2ccc(C(=O)N(C)C)o2)ccc1OCC(=O)C(C)(C)C (stereo not drawn) | 129 |
| CCc1cc(C(CC)(CC)c2ccc(C(=O)N(C)C)o2)ccc1OCC(O)C(C)(C)C (single isomer, unassigned; enantiomer 1) [Ex. 10] | 191 |
| CCNC(=O)c1ccc(C(CC)(CC)c2ccc(OCC(=O)C(C)(C)C)c(C)c2)o1 | 315 |

Let us move to another entry and its EC50.
## Input Fill in the blank: the reported EC50 of CCN(C)C(=O)c1ccc(C(CC)(CC)c2ccc(OCC(O)C(C)(C)C)c(C)c2)o1 (stereo not drawn) is ____.
## Output 616

====

Listed here: items and their measured EC50.
# System: RXR-VDR heterodimer (Homo sapiens)
# Construct: Add the Gal-4-RXR-DEF and VP16-VDR-LBD
# Assay protocol: RXR-VDR heterodimerization assay (SaOS-2 cells)
# Measurement setup: luciferase reporter, Table 1
Lab book: enter the figure in nM, no units written.

| Compound | EC50, nM |
| --- | --- |
| CCc1cc(C(CC)(CC)c2ccc(C(=O)N(C)OC)o2)ccc1OCC(O)C(C)(C)C (single isomer, unassigned; enantiomer 1) | 18 |
| CCN(C)C(=O)c1ccc(C(CC)(CC)c2ccc(OCC(O)C(C)(C)C)c(C)c2)o1 (stereo not shown) | 16 |
| CCNC(=O)c1ccc(C(CC)(CC)c2ccc(OCC(=O)C(C)(C)C)c(C)c2)o1 | 320 |

Let us move to another entry and its EC50.
## Input Fill in the blank: the reported EC50 of CCC(O)(CC)COc1ccc(C(CC)(CC)c2ccc(C(=O)N(C)C)o2)cc1C is ____.
## Output 104

====

Listed here: items and their measured Mouse Hypercal.
# Assay protocol: Mouse hypercalcemia assay
# Measurement setup: six day hypercalcemia test, oral gavage, serum ionized calcium; Table 1

// below: answered compounds
| Compound | Reported value |
| --- | --- |
| CCC(CC)(c1ccc(OCC(O)C(C)(C)C)c(C)c1)c1ccc(C(=O)N(C)C)o1 (single isomer, unassigned) [Ex. 3] | >2000 µg/kg/day |
| CCC(CC)(c1ccc(OCC(O)C(C)(C)C)c(C)c1)c1ccc(C(=O)N(C)C)o1 (single isomer, unassigned) [Ex. 4] | >2000 µg/kg/day |
| CCc1cc(C(CC)(CC)c2ccc(C(=O)N(C)OC)o2)ccc1OCC(O)C(C)(C)C (single isomer, unassigned; enantiomer 1) | >3000 µg/kg/day |

## Input Fill in the blank: the reported Mouse Hypercal of CCC(CC)(c1ccc(OCC(=O)C(C)(C)C)c(C)c1)c1ccc(C(=O)N(C)C)o1 is ____.
## Output >1500 µg/kg/day

## Input Fill in the blank: the reported Mouse Hypercal of CCc1cc(C(CC)(CC)c2ccc(C(=O)N(C)C)o2)ccc1OCC(O)C(C)(C)C (single isomer, unassigned; enantiomer 1) [Ex. 10] is ____.
## Output >1000 µg/kg/day

## Input Fill in the blank: the reported Mouse Hypercal of CCN(CC)C(=O)c1ccc(C(CC)(CC)c2ccc(OCC(=O)C(C)(C)C)c(C)c2)o1 is ____.
## Output >9000 µg/kg/day

## Input Fill in the blank: the reported Mouse Hypercal of CCc1cc(C(CC)(CC)c2ccc(C(=O)N(C)C)o2)ccc1OCC(O)C(C)(C)C (single isomer, unassigned; enantiomer 2) [Ex. 11] is ____.
## Output >3000 µg/kg/day
